targetEntity: UniProt:O13428
Sequence (O13428 as listed by the source): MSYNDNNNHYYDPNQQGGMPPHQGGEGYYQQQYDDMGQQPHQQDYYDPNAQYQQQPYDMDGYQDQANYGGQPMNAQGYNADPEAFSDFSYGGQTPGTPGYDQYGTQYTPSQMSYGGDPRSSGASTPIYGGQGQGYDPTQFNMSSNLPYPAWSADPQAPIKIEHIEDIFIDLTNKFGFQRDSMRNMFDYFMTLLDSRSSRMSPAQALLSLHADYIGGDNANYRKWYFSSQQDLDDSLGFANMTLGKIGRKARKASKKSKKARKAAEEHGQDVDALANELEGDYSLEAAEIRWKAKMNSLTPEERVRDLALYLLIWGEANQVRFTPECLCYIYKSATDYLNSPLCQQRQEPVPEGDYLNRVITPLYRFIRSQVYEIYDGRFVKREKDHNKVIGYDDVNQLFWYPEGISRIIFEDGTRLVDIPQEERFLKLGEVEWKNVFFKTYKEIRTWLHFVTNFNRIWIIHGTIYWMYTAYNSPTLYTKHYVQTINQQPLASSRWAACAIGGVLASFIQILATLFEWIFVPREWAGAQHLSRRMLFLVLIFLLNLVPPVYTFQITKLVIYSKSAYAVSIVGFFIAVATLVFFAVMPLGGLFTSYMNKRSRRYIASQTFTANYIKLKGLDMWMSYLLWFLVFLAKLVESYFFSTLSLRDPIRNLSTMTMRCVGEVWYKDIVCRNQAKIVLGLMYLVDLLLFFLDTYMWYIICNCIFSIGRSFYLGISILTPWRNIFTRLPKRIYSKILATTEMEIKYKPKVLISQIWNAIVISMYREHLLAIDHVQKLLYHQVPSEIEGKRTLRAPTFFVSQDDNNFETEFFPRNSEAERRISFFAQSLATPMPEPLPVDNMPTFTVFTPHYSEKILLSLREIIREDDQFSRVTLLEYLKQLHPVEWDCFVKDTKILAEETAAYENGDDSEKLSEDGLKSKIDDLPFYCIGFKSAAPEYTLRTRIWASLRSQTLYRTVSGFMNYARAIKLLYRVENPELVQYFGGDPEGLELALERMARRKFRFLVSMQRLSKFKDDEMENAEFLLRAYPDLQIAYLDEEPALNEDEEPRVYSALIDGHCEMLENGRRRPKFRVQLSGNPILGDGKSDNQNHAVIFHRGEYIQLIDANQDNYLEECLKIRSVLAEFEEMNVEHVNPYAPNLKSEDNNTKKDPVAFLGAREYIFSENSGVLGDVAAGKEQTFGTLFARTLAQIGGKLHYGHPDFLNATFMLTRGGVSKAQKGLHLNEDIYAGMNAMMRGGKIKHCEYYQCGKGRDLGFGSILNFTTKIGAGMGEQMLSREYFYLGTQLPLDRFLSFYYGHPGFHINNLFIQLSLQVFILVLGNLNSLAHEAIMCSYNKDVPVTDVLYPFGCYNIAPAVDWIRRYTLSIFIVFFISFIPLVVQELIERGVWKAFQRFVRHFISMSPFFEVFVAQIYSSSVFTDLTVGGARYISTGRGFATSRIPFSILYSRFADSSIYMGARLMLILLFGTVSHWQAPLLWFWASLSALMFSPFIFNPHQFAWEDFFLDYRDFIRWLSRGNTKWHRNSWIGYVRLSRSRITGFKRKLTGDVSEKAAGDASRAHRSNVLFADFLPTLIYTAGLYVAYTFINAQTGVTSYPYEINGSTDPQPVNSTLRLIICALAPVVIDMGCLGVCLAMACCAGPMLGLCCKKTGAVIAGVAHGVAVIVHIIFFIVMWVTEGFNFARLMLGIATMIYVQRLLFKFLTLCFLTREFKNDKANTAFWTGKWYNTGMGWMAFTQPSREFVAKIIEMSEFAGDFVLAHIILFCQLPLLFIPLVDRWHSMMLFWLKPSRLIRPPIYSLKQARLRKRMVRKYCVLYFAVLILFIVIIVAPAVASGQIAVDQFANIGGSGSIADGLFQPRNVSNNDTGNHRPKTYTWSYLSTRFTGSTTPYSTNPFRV
assayInfo: In vitro inhibition of glucan synthase obtained from Candida albicans at a concentration of 10 ug/mL.
Numbered stars: 1 amine (or outer) side, 2 acyl side, 3 side chain; on linkers, the order of the positions; unused ones are H or OH. Bridge positions count the residues as written; N and C are the ends. Square brackets hold non-standard residues; d marks the D form. Peptide text beside a SMILES is read from it. * marks the point of attachment. Orn(4R-OH,5R-OH) = O=C([C@H](C[C@@H](O)[C@@H](O)N[*:3])N[*:1])[*:2]; hTyr(3S-OH,4S-OH) = N[C@H](C(=O)O)[C@H](O)[C@@H](O)c1ccc(O)cc1; X3 = CC(C)(C)OCCOc1ccc(C#Cc2ccc(-c3ccc(C(=O)*)cc3)cc2)cc1; Pro(3S-OH,4S-Me) = C[C@H]1CN[C@H](C(=O)O)[C@H]1O; X25 = CCCCCCCCCCCCC(Oc1ccc(-c2ccccc2)cc1)C(=O)*; Hyp = O=C(O)[C@@H]1C[C@@H](O)CN1
Recorded inhibition by entry
Report only the number, with the unit % understood.

compound	inhibition / %
CCCCCCCCCCCCC(Oc1ccc(-c2ccccc2)cc1)C(=O)N[C@H]1C[C@@H](O)[C@@H](O)NC(=O)[C@@H]2[C@@H](O)[C@@H](C)CN2C(=O)[C@H]([C@@H](C)O)NC(=O)[C@H]([C@H](O)[C@@H](O)c2ccc(O)cc2)NC(=O)[C@@H]2C[C@@H](O)CN2C(=O)[C@H]([C@@H](C)O)NC1=O (stereo partly drawn) (X25-[Orn(4R-OH,5R-OH)]T[Hyp][hTyr(3S-OH,4S-OH)]T[Pro(3S-OH,4S-Me)]; lactam 1-C)	83

Shift focus to the following entry.
Please look at this compound and report its inhibition: C[C@@H](O)[C@@H]1NC(=O)[C@H]([C@H](O)[C@@H](O)c2ccc(O)cc2)NC(=O)[C@@H]2C[C@@H](O)CN2C(=O)[C@H]([C@@H](C)O)NC(=O)[C@@H](NC(=O)c2ccc(-c3ccc(C#Cc4ccc(OCCOC(C)(C)C)cc4)cc3)cc2)C[C@@H](O)[C@@H](O)NC(=O)[C@@H]2[C@@H](O)[C@@H](C)CN2C1=O (X3-[Orn(4R-OH,5R-OH)]T[Hyp][hTyr(3S-OH,4S-OH)]T[Pro(3S-OH,4S-Me)]; lactam 1-C) 82.4
